Reference source for all entries: patent US20230391891A1

Study target: T1, extracellular domain of hIL10Rb (human, UniProt Q08334 20-220)
T1 construct: also called hIL10Rb ECD; human IL10Rb
T1 sequence: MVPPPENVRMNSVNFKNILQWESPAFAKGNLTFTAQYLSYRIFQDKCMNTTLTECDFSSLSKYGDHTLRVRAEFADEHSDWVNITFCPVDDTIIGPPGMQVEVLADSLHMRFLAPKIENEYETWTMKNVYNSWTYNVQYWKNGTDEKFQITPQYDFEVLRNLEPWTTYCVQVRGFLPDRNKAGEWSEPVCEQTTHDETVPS
Assay comment: flow cytometry

{"Binder": "hIL10Rb_VHH-12 (VHH, anti-hIL10Rb camel VHH) VHH: QVQLQESGGGSVQAGGSLRLSCAASGYTYSSYCMGWFRQAPGKEREGVAHIDSDGSTSYADSVKGRFTISKDNAKNTLYLQMNSLKPEDTAMYYCAADPIPGPGYCDGGPNKYWGQGTQVTVSS", "binding result": "binds"}
{"Binder": "hIL10Rb_VHH-19 (VHH, anti-hIL10Rb camel VHH) VHH: QVQLQESGGGSVQAGGSLRLSCAASGYTYSSYCMGWFRQAPGKEREGVAHIDSDGSTSYADSVKGRFTISKDNAKNTLYLQMNSLKPEDTAMYYCAADPIPGPGYCDGGPNKYRGQGTQVTVSS", "binding result": "binds"}
